Values from patent US20260078119A1

Target: FAK (Homo sapiens, UniProt Q05397)
Construct: homozygous knock-in of a HiBiT tag (Promega Corporation, Madison, WI) to the C-terminus of the FAK gene in its natural genomic locus; endogenous in cells; host or cells: JHH-4-FAK-HiBiT clone d01 (CRISPR-Cas9 knock-in at the endogenous locus)
Sequence (Q05397 whole entry): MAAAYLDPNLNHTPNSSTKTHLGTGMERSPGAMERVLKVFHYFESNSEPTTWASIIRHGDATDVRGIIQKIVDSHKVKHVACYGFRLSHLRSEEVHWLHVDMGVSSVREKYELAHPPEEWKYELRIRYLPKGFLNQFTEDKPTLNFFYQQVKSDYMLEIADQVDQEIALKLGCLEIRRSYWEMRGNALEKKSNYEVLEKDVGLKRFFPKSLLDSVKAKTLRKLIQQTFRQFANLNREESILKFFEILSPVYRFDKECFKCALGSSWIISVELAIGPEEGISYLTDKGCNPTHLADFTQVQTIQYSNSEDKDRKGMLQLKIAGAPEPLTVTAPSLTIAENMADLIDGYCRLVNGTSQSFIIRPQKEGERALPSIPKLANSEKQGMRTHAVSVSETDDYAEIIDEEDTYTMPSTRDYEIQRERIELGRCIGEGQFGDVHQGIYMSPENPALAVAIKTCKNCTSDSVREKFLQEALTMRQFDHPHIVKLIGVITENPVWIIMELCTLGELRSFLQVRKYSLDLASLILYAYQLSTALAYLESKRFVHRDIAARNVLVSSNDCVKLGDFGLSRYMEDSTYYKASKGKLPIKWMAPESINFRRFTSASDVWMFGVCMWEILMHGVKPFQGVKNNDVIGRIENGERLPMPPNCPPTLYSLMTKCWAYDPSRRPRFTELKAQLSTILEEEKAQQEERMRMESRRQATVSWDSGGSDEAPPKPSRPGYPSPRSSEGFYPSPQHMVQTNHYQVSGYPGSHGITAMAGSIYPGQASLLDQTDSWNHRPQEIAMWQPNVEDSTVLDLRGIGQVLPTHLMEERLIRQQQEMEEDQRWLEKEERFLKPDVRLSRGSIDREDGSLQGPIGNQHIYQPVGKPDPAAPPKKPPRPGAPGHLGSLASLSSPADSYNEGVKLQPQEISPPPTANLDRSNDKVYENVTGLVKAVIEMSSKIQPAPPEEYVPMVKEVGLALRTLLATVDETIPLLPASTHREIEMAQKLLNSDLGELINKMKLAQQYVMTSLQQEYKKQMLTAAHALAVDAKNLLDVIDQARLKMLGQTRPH
Test: FAK-HiBiT Degradation Assay
Format: cell-based
Settings: JHH-4-FAK-HiBiT clone d01 cells; two hours incubation; 10-point dose response, 3-fold dilution starting at 1 μM; Nano-Glo HiBiT luminescence; read-out: FAK HiBiT EC50
measuredQuantity: DC50 (nM)

See these solved cases before continuing.
[[record]]
compound = "C[C@]1(O)CCN(c2nc3c(cnn3Cc3ccc4c(c3)CN([C@H]3CCC(=O)NC3=O)C4=O)c(-c3ncc(C(F)(F)F)cc3Cl)c2F)C1"
target = "FAK (Homo sapiens, UniProt Q05397)"
measuredquantity = "DC50"
numericvalue = 3.11

[[record]]
compound = "O=C1CCC(N2Cc3cc(Cn4ncc5c(-c6ncc(F)cc6Cl)cc(N6CC[C@H](O)C6)nc54)ccc3C2=O)C(=O)N1 (some centres unmarked)"
target = "FAK (Homo sapiens, UniProt Q05397)"
measuredquantity = "DC50"
numericvalue = 26.8


a = O=C1CC[C@H](N2Cc3cc(Cn4ncc5c(-c6ccc(OCC(F)(F)F)cc6Cl)cc(N6CC(F)C6)nc54)ccc3C2=O)C(=O)N1
b = Cc1cc(C#N)cnc1-c1cc(N2CC(F)C2)nc2c1cnn2Cc1ccc2c(c1)CN(C1CCC(=O)NC1=O)C2=O (centres unmarked)
Input line: Field: lower recorded DC50 (choose a or b ) Write the label of whichever entry you select.
Output line: a
(a: 2.4 nM, b: 14.1 nM)

A = O=C1CCC(N2Cc3cc(Cn4ccc5c(-c6ncc(F)cc6Cl)cc(N6CC(F)C6)nc54)ccc3C2=O)C(=O)N1 (centres unmarked)
B = O=C1CCC(N2Cc3cc(Cn4ncc5c(-c6ncccc6Cl)cc(N6CC(F)C6)nc54)ccc3C2=O)C(=O)N1 (centres unmarked)
C = CCOc1ccc(-c2c(F)c(N3CC[C@](C)(O)C3)nc3c2cnn3Cc2ccc3c(c2)CN([C@H]2CCC(=O)NC2=O)C3=O)c(Cl)c1
D = CC(C)Nc1cc(-c2ncc(C(F)(F)F)cc2Cl)c2cnn(Cc3ccc4c(c3)CN([C@H]3CCC(=O)NC3=O)C4=O)c2n1
E = N#Cc1cnc(-c2cc(N3CC[C@H](O)C3)nc3c2cnn3Cc2ccc3c(c2)CN([C@H]2CCC(=O)NC2=O)C3=O)c(F)c1
Input line: With regard to DC50, arrange the entries in ascending order, please. // format: requested-order list of labels
Output line: D, A, C, B, E
(D: 1.76 nM, A: 3.36 nM, C: 5.06 nM, B: 13.4 nM, E: 95.4 nM)

P = Cc1cnc(-c2cc(N3CC(F)C3)nc3c2cnn3Cc2ccc3c(c2)CN(C2CCC(=O)NC2=O)C3=O)c(Cl)c1 (centres unmarked)
Q = O=C1CCC(N2Cc3cc(Cn4ncc5c(-c6ncccc6Br)cc(N6CC(F)C6)nc54)ccc3C2=O)C(=O)N1 (centres unmarked)
Input line: Field: lower recorded DC50 (choose P or Q ) Write the label of whichever entry you select.
Output line: P

I = CCOc1ccc(-c2cc(N3CC(F)C3)nc3c2cnn3Cc2ccc3c(c2)CN([C@H]2CCC(=O)NC2=O)C3=O)c(C)c1
II = O=C1CCC(N2Cc3cc(Cn4ncc5c(-c6ncc(F)cc6F)cc(N6CC(F)C6)nc54)ccc3C2=O)C(=O)N1 (centres unmarked)
III = O=C1CC[C@H](N2Cc3cc(Cn4ncc5c(-c6ncc(C(F)(F)F)cc6Cl)cc(N6CC(F)C6)nc54)ccc3C2=O)C(=O)N1
IV = CN1CCC(Nc2cc(-c3ncc(C(F)(F)F)cc3Cl)c3cnn(Cc4ccc5c(c4)CN(C4CCC(=O)NC4=O)C5=O)c3n2)C1 (centres unmarked)
V = CCOc1cnc(-c2cc(N3CC(F)C3)nc3c2cnn3Cc2ccc3c(c2)CN(C2CCC(=O)NC2=O)C3=O)c(C#N)c1 (centres unmarked)
Input line: List these items ordered by DC50, big to small. // format: requested-order list of labels
Output line: IV, II, V, I, III

A = CC(C)Nc1cc(-c2ncc(C#N)cc2Cl)c2cnn(Cc3ccc4c(c3)CN(C3CCC(=O)NC3=O)C4=O)c2n1 (centres unmarked)
B = Cc1cc(C(F)(F)F)ccc1-c1cc(N2CC[C@H](O)C2)nc2c1cnn2Cc1ccc2c(c1)CN([C@H]1CCC(=O)NC1=O)C2=O
C = O=C1CC[C@H](N2Cc3cc(Cn4ncc5c(-c6ncc(F)cc6F)cc(N6CC[C@H](O)C6)nc54)ccc3C2=O)C(=O)N1
Input line: List these items ordered by DC50, big to small. // format: requested-order list of labels
Output line: C, A, B
(C: 109 nM, A: 30.5 nM, B: 4.08 nM)

I = CCOc1cnc(-c2cc(N3CC(F)C3)nc3c2cnn3Cc2ccc3c(c2)CN([C@H]2CCC(=O)NC2=O)C3=O)c(C(F)(F)F)c1
II = N#Cc1cnc(-c2cc(N3CCC3)nc3c2cnn3Cc2ccc3c(c2)CN(C2CCC(=O)NC2=O)C3=O)c(F)c1 (centres unmarked)
Input line: Field: lower recorded DC50 (choose I or II ) Write the label of whichever entry you select.
Output line: I
(I: 0.82 nM, II: 10.3 nM)

P = O=C1CCC(N2Cc3cc(Cn4ncc5c(-c6ncc(C(F)(F)F)cc6Cl)cc(N6CC(F)C6)nc54)ccc3C2=O)C(=O)N1 (centres unmarked)
Q = Cc1cc(F)cnc1-c1cc(N2CC(F)C2)nc2c1cnn2Cc1ccc2c(c1)CN([C@H]1CCC(=O)NC1=O)C2=O
Input line: # argmax over DC50 for candidates P and Q Write the label of whichever entry you select.
Output line: Q
